// cross-source set; read-out = pIC50; system = Prostaglandin G/H synthase 1 (Homo sapiens)
Recall that pIC50 is obtained by taking minus log10 of the concentration measured in molar.

Query: Tell me its pIC50 given `COc1ccc(Oc2cnccc2NS(=O)(=O)C(F)(F)F)cc1` as the entry.
Reply: 6.59

Query: Tell me its pIC50 given `O=[N+]([O-])c1ccc(/C=C/c2cc(O)cc(O)c2)cc1` as the entry.
Reply: 5.66

Query: Tell me its pIC50 given `CS(=O)(=O)c1ccc(-c2coc(=O)n2-c2ccc(Cl)cc2)cc1` as the entry.
Reply: 4.87

Query: Tell me its pIC50 given `CC(C)(C)c1cc(C(=O)CCCC2CC2)cc2c1OCC2(C)C` as the entry.
Reply: 5.15

Query: Tell me its pIC50 given `Cc1ccc2c(c1)c(-c1ccnc3c(C)cccc13)c(C)n2CC(=O)O` as the entry.
Reply: 5.52

Query: Tell me its pIC50 given `Cc1cc(C)c2c(CSc3nnc(CSc4nc5cc(Cl)ccc5o4)o3)cc(=O)oc2c1` as the entry.
Reply: 3.30

Query: Tell me its pIC50 given `CCc1cc(C(=O)CCCC2CC2)cc2c1OCC2(C)C` as the entry.
Reply: 4.70

Query: Tell me its pIC50 given `CCNC(=O)/C=C/c1c(/C=C/c2ccc(OC)cc2)cc(OC)cc1OC` as the entry.
Reply: 4.45

###

// cross-source set; read-out = pIC50; system = Prostaglandin G/H synthase 1 (Homo sapiens, UniProt P23219)
Sequence (P23219 whole entry): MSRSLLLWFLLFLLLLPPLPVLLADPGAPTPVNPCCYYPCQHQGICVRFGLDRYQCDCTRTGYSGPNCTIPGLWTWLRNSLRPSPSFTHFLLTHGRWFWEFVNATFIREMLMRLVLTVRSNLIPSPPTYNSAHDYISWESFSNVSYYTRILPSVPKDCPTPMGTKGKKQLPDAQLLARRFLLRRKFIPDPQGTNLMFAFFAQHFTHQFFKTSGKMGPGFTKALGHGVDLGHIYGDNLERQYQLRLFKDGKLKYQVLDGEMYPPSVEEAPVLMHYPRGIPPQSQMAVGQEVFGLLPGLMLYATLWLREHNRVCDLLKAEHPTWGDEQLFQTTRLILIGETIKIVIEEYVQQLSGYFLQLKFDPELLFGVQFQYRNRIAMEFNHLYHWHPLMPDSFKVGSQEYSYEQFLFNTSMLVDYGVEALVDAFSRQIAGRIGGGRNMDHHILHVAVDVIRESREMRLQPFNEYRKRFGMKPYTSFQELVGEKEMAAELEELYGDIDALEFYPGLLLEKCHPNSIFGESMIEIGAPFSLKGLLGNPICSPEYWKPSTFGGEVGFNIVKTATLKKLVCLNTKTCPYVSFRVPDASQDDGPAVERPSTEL
Recall that pIC50 is obtained by taking minus log10 of the concentration measured in molar.

Query: Under Prostaglandin G/H synthase 1 (Homo sapiens, UniProt P23219), report pIC50 for O=C(O)C1=Cc2cc(Cl)cc(-c3ccc(CO)cc3)c2OC1C(F)(F)F (stereo unspecified)
Reply: 5.61

Query: Under Prostaglandin G/H synthase 1 (Homo sapiens, UniProt P23219), report pIC50 for `NS(=O)(=O)c1ccc(-c2coc(=O)n2-c2ccc(Cl)c(Cl)c2)cc1`
Reply: 5.82

Query: Under Prostaglandin G/H synthase 1 (Homo sapiens, UniProt P23219), report pIC50 for `O=Cc1ccc(-c2ccsc2-c2ccc(F)cc2)cc1`
Reply: 6.01

Query: Under Prostaglandin G/H synthase 1 (Homo sapiens, UniProt P23219), report pIC50 for `CC1(C)OC(=O)C(Oc2ccc(Br)cn2)=C1c1ccc(S(C)(=O)=O)cc1`
Reply: 5.25

Query: Under Prostaglandin G/H synthase 1 (Homo sapiens, UniProt P23219), report pIC50 for O=C(O)C1=Cc2c(cc(Cl)c(Cl)c2Cl)OC1C(F)(F)F (stereo unspecified)
Reply: 6.06

Query: Under Prostaglandin G/H synthase 1 (Homo sapiens, UniProt P23219), report pIC50 for `N#Cc1nn(-c2ccc(S(N)(=O)=O)cc2)c2c1SCc1cc(F)ccc1-2`
Reply: 6.12

Query: Under Prostaglandin G/H synthase 1 (Homo sapiens, UniProt P23219), report pIC50 for `COc1ccc(/C=C/c2cc(OC)cc(OC)c2/C=C/C(=O)N2CCSCC2)cc1`
Reply: 4.34

Query: Under Prostaglandin G/H synthase 1 (Homo sapiens, UniProt P23219), report pIC50 for CCC1SCC(=O)N1c1c(C#N)c2n(c1C(=O)Nc1ccccc1)CCC2 (stereo unspecified)
Reply: 4.36

Query: Under Prostaglandin G/H synthase 1 (Homo sapiens, UniProt P23219), report pIC50 for `Cc1cc2c(cc1F)-c1c(c(C(F)(F)F)nn1-c1ccc(S(N)(=O)=O)cc1)SC2`
Reply: 4.95

Query: Under Prostaglandin G/H synthase 1 (Homo sapiens, UniProt P23219), report pIC50 for `Nc1ccc(Oc2ccc(OCCN3CCCC3)cc2)cc1`
Reply: 5.72

Query: Under Prostaglandin G/H synthase 1 (Homo sapiens, UniProt P23219), report pIC50 for C[S+]([O-])c1ccc(-c2ccsc2-c2ccc(F)cc2)cc1 (stereo unspecified)
Reply: 4.82

Query: Under Prostaglandin G/H synthase 1 (Homo sapiens, UniProt P23219), report pIC50 for `C/C(=C\c1cc(O)cc(O)c1)c1cccc(F)c1`
Reply: 5.31

Query: Under Prostaglandin G/H synthase 1 (Homo sapiens, UniProt P23219), report pIC50 for `NS(=O)(=O)c1ccc(-c2coc(=O)n2-c2ccccc2Cl)cc1`
Reply: 4.45

Query: Under Prostaglandin G/H synthase 1 (Homo sapiens, UniProt P23219), report pIC50 for `Nc1c(C(=O)N/N=C/c2ccc([N+](=O)[O-])cc2)cnn1-c1ccc(S(N)(=O)=O)cc1`
Reply: 5.30

Query: Under Prostaglandin G/H synthase 1 (Homo sapiens, UniProt P23219), report pIC50 for `Oc1cc(O)c2cc(O)c(-c3ccc(O)c(O)c3)[o+]c2c1`
Reply: 4.05

Query: Under Prostaglandin G/H synthase 1 (Homo sapiens, UniProt P23219), report pIC50 for `NS(=O)(=O)c1ccc(-n2nc(C(=O)N3CCSCC3)cc2-c2cccc(Cl)c2)cc1`
Reply: 4.53

Query: Under Prostaglandin G/H synthase 1 (Homo sapiens, UniProt P23219), report pIC50 for `Nc1c(C(=O)N/N=C/c2ccccc2Cl)cnn1-c1ccc(S(N)(=O)=O)cc1`
Reply: 4.98

Query: Under Prostaglandin G/H synthase 1 (Homo sapiens, UniProt P23219), report pIC50 for `C=C1CCC[C@]2(C)CC[C@@H]([C@@](C)(O)CO)C[C@]12O`
Reply: 5.89

Query: Under Prostaglandin G/H synthase 1 (Homo sapiens, UniProt P23219), report pIC50 for `CCc1ccc(-n2c(-c3ccc(S(C)(=O)=O)cc3)coc2=O)cc1`
Reply: 4.37

Query: Under Prostaglandin G/H synthase 1 (Homo sapiens, UniProt P23219), report pIC50 for Cc1ccc(-c2cc(Cl)cc3c2OC(C(F)(F)F)C(C(=O)O)=C3)cc1 (stereo unspecified)
Reply: 5.36

Query: Under Prostaglandin G/H synthase 1 (Homo sapiens, UniProt P23219), report pIC50 for `N#Cc1c(/N=C/c2ccco2)c(C(=O)Nc2ccc(Br)cc2)n2c1CCC2`
Reply: 4.88

Query: Under Prostaglandin G/H synthase 1 (Homo sapiens, UniProt P23219), report pIC50 for CCOc1cccc(OCC)c1-c1ccc(C(C)C(=O)O)cc1F (stereo unspecified)
Reply: 5.11

Query: Under Prostaglandin G/H synthase 1 (Homo sapiens, UniProt P23219), report pIC50 for `Cc1ccc(Cl)c(Nc2ccccc2C(=O)O)c1Cl`
Reply: 6.66

Query: Under Prostaglandin G/H synthase 1 (Homo sapiens, UniProt P23219), report pIC50 for `Cc1ccc2c(CSc3nnc(CSc4nc5ccccc5o4)o3)cc(=O)oc2c1`
Reply: 3.70

Query: Under Prostaglandin G/H synthase 1 (Homo sapiens, UniProt P23219), report pIC50 for Cc1ccc(S(=O)(=O)N2N=C(C(F)(F)F)CC2c2cccc3c2OCCO3)cc1 (stereo unspecified)
Reply: 4.81
